Measured t1/2 of individual entries
- tested_on: T1, monomeric human CTLA-4 (human, UniProt P16410 36-161, limits assumed)
- T1 construct: Soluble monomeric analyte in SPR; also called huCTLA-4
- T1 sequence: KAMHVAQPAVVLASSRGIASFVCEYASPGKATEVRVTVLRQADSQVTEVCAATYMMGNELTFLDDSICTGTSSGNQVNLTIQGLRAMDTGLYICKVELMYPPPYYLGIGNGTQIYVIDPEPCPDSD
- test_name: SPR, captured Fab, pH 6.0
quantity_name: t1/2 (min)

1. ipi.94 Fab (Fab, V domains shown, Tested as monovalent Fab) VH: QVQLVESGGGVVQPGRSLRLSCAASGFTFSHYTMHWVRQAPGKGLEWVTFISYDGNNKYYADSVKGRFTISRDNSKNTLYLQMNSLRAEDTAIYYCARTGWLGPFDYWGQGTLVTVSS VL: EIVLTQSPGTLSLSPGERATLSCRASQEVGDSELAWYQQKPGQAPRLLIYGAFSRATGIPDRFSGSGSGTDFTLTISRLEPEDFAVYYCQQYGSSPWTFGQGTKVEIKR ... 1.17
2. ipi.105 Fab (Fab, V domains shown, Tested as monovalent Fab) VH: QVQLVESGGGVVQPGRSLRLSCAASGFTFSHYTMHWVRQAPGKGLEWVTFISYDGHNKYYADSVKGRFTISRDNSKNTLYLQMNSLRAEDTAIYYCARTGWLGPFDYWGQGTLVTVSS VL: EIVLTQSPGTLSLSPGERATLSCRASQEVGESELAWYQQKPGQAPRLLIYGAFSRATGIPDRFSGSGSGTDFTLTISRLEPEDFAVYYCQQYGSSPWTFGQGTKVEIKR ... 3.62
3. ipi.95 Fab (Fab, V domains shown, Tested as monovalent Fab) VH: QVQLVESGGGVVQPGRSLRLSCAASGFTFSHYTMHWVRQAPGKGLEWVTFISYDGHNKYYADSVKGRFTISRDNSKNTLYLQMNSLRAEDTAIYYCARTGWLGPFDYWGQGTLVTVSS VL: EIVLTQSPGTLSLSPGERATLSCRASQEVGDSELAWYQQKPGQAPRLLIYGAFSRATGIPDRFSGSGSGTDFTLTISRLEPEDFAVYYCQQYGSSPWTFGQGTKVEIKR ... 2.1
4. ipi.106 Fab (Fab, V domains shown, Tested as monovalent Fab) VH: QVQLVESGGGVVQPGRSLRLSCAASGFTFSHYTMHWVRQAPGKGLEWVTFISYDGHNKYYADSVKGRFTISRDNSKNTLYLQMNSLRAEDTAIYYCARHGWLGPFDYWGQGTLVTVSS VL: EIVLTQSPGTLSLSPGERATLSCRASQEVGESELAWYQQKPGQAPRLLIYGAFSRATGIPDRFSGSGSGTDFTLTISRLEPEDFAVYYCQQYGSSPWTFGQGTKVEIKR ... 0.55

// provenance: patent US20220193237A1
